Observed IC50 values for catalytic domain of MMP-13 enzyme (Homo sapiens) are listed in what follows.

Task item: What value of measured IC50 is listed for C[C@@H](NC(=O)c1nc2sc3c(c2c(=O)[nH]1)CCC3)c1ccc(F)cc1 [2/319] ?
Reply: 100 to 20000 nM

Task item: What value of measured IC50 is listed for CN1CCc2c(sc3nc(C(=O)NCc4ccc5c(c4)NC(=O)CO5)[nH]c(=O)c23)C1 [2/29] ?
Reply: < 100 nM

Task item: What value of measured IC50 is listed for NC(=O)[C@@H]1CCC[C@@H]1NC(=O)c1nc2sc3c(c2c(=O)[nH]1)CCC3 [2/323] ?
Reply: 100 to 20000 nM
